These measurements were taken from patent US20120172293A1.

target entity: human Y2 receptor (human) (UniProt P49146)
Sequence (P49146 whole entry): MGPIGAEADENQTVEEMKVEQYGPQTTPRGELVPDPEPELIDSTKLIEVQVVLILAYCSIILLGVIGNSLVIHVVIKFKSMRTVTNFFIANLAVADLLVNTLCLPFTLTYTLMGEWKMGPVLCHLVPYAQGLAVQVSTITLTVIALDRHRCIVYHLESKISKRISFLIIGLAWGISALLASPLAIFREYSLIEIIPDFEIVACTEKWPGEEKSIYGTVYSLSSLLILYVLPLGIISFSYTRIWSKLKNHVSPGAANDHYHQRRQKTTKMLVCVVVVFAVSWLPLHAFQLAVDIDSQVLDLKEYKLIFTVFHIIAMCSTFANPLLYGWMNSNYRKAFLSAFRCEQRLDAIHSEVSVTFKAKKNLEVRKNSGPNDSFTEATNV
protocol description: RBA: displacement of [125I]-PYY from hY2R/CHO membranes
Non-standard residues stand in square brackets, D forms with d. No end group written: not given here. 4Pal = N[C@@H](Cc1ccncc1)C(=O)O; Cha = N[C@@H](CC1CCCCC1)C(=O)O; Iva = CC[C@](C)(N)C(=O)O; Aib = CC(C)(N)C(=O)O; Ahx = NCCCCCC(=O)O; βAla = NCCC(=O)O
reported metric: IC50 Ratio (IC50 compound/IC50 PYY(3-36))

{"binder": "Ac-S[dP][Iva][4Pal][Cha][Iva]NK[Aib]TRQR[Cha]-NH2 (SMILES CC[C@](C)(NC(=O)[C@H](CC1CCCCC1)NC(=O)[C@H](Cc1ccncc1)NC(=O)[C@](C)(CC)NC(=O)[C@H]1CCCN1C(=O)[C@H](CO)NC(C)=O)C(=O)N[C@@H](CC(N)=O)C(=O)N[C@@H](CCCCN)C(=O)NC(C)(C)C(=O)N[C@H](C(=O)N[C@@H](CCCNC(=N)N)C(=O)N[C@@H](CCC(N)=O)C(=O)N[C@@H](CCCNC(=N)N)C(=O)N[C@@H](CC1CCCCC1)C(N)=O)[C@@H](C)O) [Ac-[D-Pro24, Iva25,28, Pya(4)26, Cha27,36, Lys30, Aib31]-PYY(23-36)]", "observed measurement": 1.1}
{"binder": "Ac-S[βAla]R[4Pal][Cha][Aib]NK[Aib]TRQR[Cha]-NH2 (SMILES CC(=O)N[C@@H](CO)C(=O)NCCC(=O)N[C@@H](CCCNC(=N)N)C(=O)N[C@@H](Cc1ccncc1)C(=O)N[C@@H](CC1CCCCC1)C(=O)NC(C)(C)C(=O)N[C@@H](CC(N)=O)C(=O)N[C@@H](CCCCN)C(=O)NC(C)(C)C(=O)N[C@H](C(=O)N[C@@H](CCCNC(=N)N)C(=O)N[C@@H](CCC(N)=O)C(=O)N[C@@H](CCCNC(=N)N)C(=O)N[C@@H](CC1CCCCC1)C(N)=O)[C@@H](C)O) [Ac-[βAla24, Pya(4)26, Cha27,36, Aib28,31, Lys30]-PYY(23-36)]", "observed measurement": 1.9}
{"binder": "[Ahx][dP]R[4Pal][Cha][Aib]NK[Aib]TRQR[Cha]-NH2 (not fully specified (N-terminus); printed as Ac-Acp-D-Pro-Arg-Pya(4)-Cha-Aib-Asn-Lys-Aib-Thr-Arg-Gln-Arg-Cha-NH2) [[Acp23, D-Pro24, Pya(4)26, Cha27,36, Aib28,31, Lys30]-PYY(23-36)]", "observed measurement": 0.32}
